// provenance: PubChem BioAssay (EPA / NIEHS)

# Read-out: X-box binding protein 1 (XBP1), XBP1 (gene 7494)
# Test: LTEA_HepaRG_XBP1: Life Technologies and Expression Analysis (LTEA) Assay for X-box binding protein 1 (XBP1) using HepaRG (AID 2283540)
# Condition details: mRNA level, 48 h; actives raise or lower the signal
Calls of active or inactive are those of the source. How the source made its calls: active means hit-call score of the fitted dose curve at least 0.9, where 1 is the maximum; inactive means score below 0.9.
Outcomes you can answer with include only these: active, inactive

Worked examples, 3 compounds total:
-- ask Hi, sorry to bother you, what did the test record for CC(=O)C(C)=CC1C(C)=CCCC1(C)C (stereo unspecified) ?
-- reply inactive

-- ask Hi, sorry to bother you, what did the test record for CNC(=O)[C@H]1O[C@@H](n2cnc3c(NCc4cc(Cl)ccc4OCc4cc(C)no4)ncnc32)[C@H](O)[C@@H]1N ?
-- reply inactive

-- ask Hi, sorry to bother you, what did the test record for Nc1ccccc1N ?
-- reply active

Next:
-- ask Hi, sorry to bother you, what did the test record for CCCCN(CCCC)CCCC ?
-- reply inactive

-- ask Hi, sorry to bother you, what did the test record for COc1ccc(S(=O)(=O)N2C(=O)[C@@](c3ccccc3OC)(N3C[C@H](O)C[C@H]3C(=O)N(C)C)c3cc(Cl)ccc32)c(OC)c1 ?
-- reply inactive

-- ask Hi, sorry to bother you, what did the test record for CCCCCCCCCCCCCCCCCC(=O)O ?
-- reply inactive

-- ask Hi, sorry to bother you, what did the test record for CCOc1ccc2c(c1)C(C)=CC(C)(C)N2 ?
-- reply inactive

-- ask Hi, sorry to bother you, what did the test record for CC(=O)Oc1ccccc1C(=O)O ?
-- reply inactive

-- ask Hi, sorry to bother you, what did the test record for O=C(O)CCCCC(=O)O ?
-- reply inactive

-- ask Hi, sorry to bother you, what did the test record for COCCOCCOC ?
-- reply active

-- ask Hi, sorry to bother you, what did the test record for Cc1ccc(C)c(C)c1 ?
-- reply inactive

-- ask Hi, sorry to bother you, what did the test record for C1CCC(SSC2CCCCC2)CC1 ?
-- reply inactive

* * *

# Read-out: Cytochrome P450 4A22 (Homo sapiens) (UniProt Q5TCH4)
# Test: LTEA_HepaRG_CYP4A22: Life Technologies and Expression Analysis (LTEA) Assay for Cytochrome P450 4A22 (CYP4A22) using HepaRG (AID 2283495)
# Condition details: mRNA level, 48 h; actives raise or lower the signal
Activity calls are given as the source filed them. How the source made its calls: active means hit-call score of the fitted dose curve at least 0.9, where 1 is the maximum; inactive means score below 0.9.
Outcomes you can answer with include only these: active, inactive

-- ask Hi, sorry to bother you, what did the test record for CCCCC(CC)COC(=O)CC(C(=O)OCC(CC)CCCC)S(=O)(=O)O (stereo not drawn) ?
-- reply inactive

-- ask Hi, sorry to bother you, what did the test record for CC(=O)Oc1ccccc1C(=O)O ?
-- reply inactive

-- ask Hi, sorry to bother you, what did the test record for Nc1ccc(S(=O)(=O)c2ccc(N)cc2)cc1 ?
-- reply inactive

Next:
-- ask Hi, sorry to bother you, what did the test record for CCCCCCCCCCO ?
-- reply inactive

-- ask Hi, sorry to bother you, what did the test record for CCCCCC(=O)O ?
-- reply inactive

-- ask Hi, sorry to bother you, what did the test record for O=C(O)Cc1ccccc1Nc1c(Cl)cccc1Cl ?
-- reply active

-- ask Hi, sorry to bother you, what did the test record for Cc1ccc(C)c(C)c1 ?
-- reply inactive

-- ask Hi, sorry to bother you, what did the test record for c1cc(-c2ccncc2)ccn1 ?
-- reply inactive

* * *

# Target of assay: rat Serotonin, 5-Hydroxytryptamine Receptor (5HT), Non-Selective Binding, Htr1a (gene 24473) (UniProt P19327)
# Sequence (P19327 whole entry, looked up): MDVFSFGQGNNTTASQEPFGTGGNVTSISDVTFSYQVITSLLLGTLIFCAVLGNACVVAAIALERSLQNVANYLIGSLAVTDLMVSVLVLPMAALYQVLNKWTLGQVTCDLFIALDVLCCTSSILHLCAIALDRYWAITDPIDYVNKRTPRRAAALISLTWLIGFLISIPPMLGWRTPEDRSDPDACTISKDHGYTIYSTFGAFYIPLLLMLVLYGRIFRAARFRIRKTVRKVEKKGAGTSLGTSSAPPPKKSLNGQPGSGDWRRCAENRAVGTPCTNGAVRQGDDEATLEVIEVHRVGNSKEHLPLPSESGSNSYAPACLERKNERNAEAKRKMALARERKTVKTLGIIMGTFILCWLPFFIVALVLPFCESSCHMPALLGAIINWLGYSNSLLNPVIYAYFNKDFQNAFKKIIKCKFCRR
# Test: NVS_GPCR_r5HT_NonSelective: NovaScreen (NVS) G Protein-Coupled Receptor Assay for rat Serotonin, 5-Hydroxytryptamine Receptor (5HT), Non-Selective Binding (AID 2283295)
Inconclusive results are not listed. Active and inactive are the calls of the source. Rule for the calls: active = hit-call score of the fitted dose curve at least 0.9, where 1 is the maximum; inconclusive = response in the unintended direction; inactive = score below 0.9.
Outcomes you can answer with include only these: active, inactive

Worked examples, 3 compounds total:
-- ask Hi, sorry to bother you, what did the test record for CC(=O)C(C)=CC1C(C)=CCCC1(C)C (stereo unspecified) ?
-- reply inactive

-- ask Hi, sorry to bother you, what did the test record for O=C(N[C@@H](Cc1ccccc1)[C@@H](O)C(=O)N1C[C@@H](O)[C@@H](O)C1)c1cc2cc(Cl)ccc2[nH]1 ?
-- reply inactive

-- ask Hi, sorry to bother you, what did the test record for CC1=C(/C=C/C(C)=C/C=C/C(C)=C/CO)C(C)(C)CCC1 ?
-- reply inactive

Next:
-- ask Hi, sorry to bother you, what did the test record for CCc1c(C(=O)NN2CCCCC2)nn(-c2ccc(Cl)cc2Cl)c1-c1ccc(Br)cc1 ?
-- reply active

-- ask Hi, sorry to bother you, what did the test record for CN1CCN(Cc2cc(-c3ccc4[nH]c(=O)oc4c3)co2)[C@@H](c2ccc(F)cc2)C1 ?
-- reply active

-- ask Hi, sorry to bother you, what did the test record for CCCCC(CC)COC(=O)CC(C(=O)OCC(CC)CCCC)S(=O)(=O)O (stereo unspecified) ?
-- reply active

* * *

# Test: APR_HepG2_NuclearSize_24hr: Apredica 24-hour HepG2 Assay for Nuclear Size (AID 2282907)
# Condition details: high-content imaging, actives raise or lower the signal
Active and inactive are the calls of the source. Rule for the calls: active = hit-call score of the fitted dose curve at least 0.9, where 1 is the maximum; inactive = score below 0.9.
Outcomes you can answer with include only these: 1.0 for active, 0.0 for inactive

Worked examples, 3 compounds total:
-- ask Hi, sorry to bother you, what did the test record for CN[C@H]1CC[C@@H](c2ccc(Cl)c(Cl)c2)c2ccc(S(N)(=O)=O)cc21 ?
-- reply 0.0

-- ask Hi, sorry to bother you, what did the test record for CCCCc1ccc2c(n1)[C@@H](c1ccc(OC)cc1C[C@H](C)C(=O)O)[C@H](C(=O)O)[C@H]2c1ccc2c(c1)OCO2 ?
-- reply 0.0

-- ask Hi, sorry to bother you, what did the test record for C=CCc1ccc(O)c(OC)c1 ?
-- reply 0.0

Next:
-- ask Hi, sorry to bother you, what did the test record for CC(=O)OC/C=C(\C)CCC=C(C)C ?
-- reply 0.0

-- ask Hi, sorry to bother you, what did the test record for CCCc1cc(=O)[nH]c(=S)[nH]1 ?
-- reply 0.0

-- ask Hi, sorry to bother you, what did the test record for CCOC(=O)C(C)(C)Oc1ccc(Cl)cc1 ?
-- reply 0.0

-- ask Hi, sorry to bother you, what did the test record for Cc1oc(-c2ccccc2)nc1CCOc1cccc2c1ccn2CCC(=O)O ?
-- reply 0.0

-- ask Hi, sorry to bother you, what did the test record for CC1(C)CC(N=C=O)CC(C)(CN=C=O)C1 (configuration not stated) ?
-- reply 0.0

-- ask Hi, sorry to bother you, what did the test record for CC(C)(C)c1cc(O)c(C(C)(C)C)cc1O ?
-- reply 0.0

-- ask Hi, sorry to bother you, what did the test record for CCOC(=O)CCC(=O)OCC ?
-- reply 0.0

-- ask Hi, sorry to bother you, what did the test record for c1cc(-c2ccncc2)ccn1 ?
-- reply 0.0

-- ask Hi, sorry to bother you, what did the test record for COc1ccc(C)cc1N ?
-- reply 0.0

-- ask Hi, sorry to bother you, what did the test record for CCCCCCCCCCO ?
-- reply 0.0

* * *

# Read-out: ATP-citrate lyase (ACLY), ACLY (gene 47)
# Test: LTEA_HepaRG_ACLY: Life Technologies and Expression Analysis (LTEA) Assay for ATP-citrate lyase (ACLY) using HepaRG (AID 2283466)
# Condition details: mRNA level, 48 h; actives raise or lower the signal
The source made the active and inactive calls. How the source made its calls: active means hit-call score of the fitted dose curve at least 0.9, where 1 is the maximum; inactive means score below 0.9.
Outcomes you can answer with include only these: active, inactive

Worked examples, 2 molecules total:
-- ask Hi, sorry to bother you, what did the test record for CCCCCCCCCCCCCO ?
-- reply inactive

-- ask Hi, sorry to bother you, what did the test record for CCCCCC(=O)O ?
-- reply inactive

Next:
-- ask Hi, sorry to bother you, what did the test record for CC(C)(C)c1cc(O)c(C(C)(C)C)cc1O ?
-- reply inactive

-- ask Hi, sorry to bother you, what did the test record for Cc1ccc(C)c(C)c1 ?
-- reply inactive

-- ask Hi, sorry to bother you, what did the test record for NCCO ?
-- reply inactive

-- ask Hi, sorry to bother you, what did the test record for CCCCCCCCCCCCCCCC ?
-- reply inactive

-- ask Hi, sorry to bother you, what did the test record for CCCCC(CC)COC(=O)CC(C(=O)OCC(CC)CCCC)S(=O)(=O)O (centres undefined) ?
-- reply active

-- ask Hi, sorry to bother you, what did the test record for CCCCCCCCCCO ?
-- reply inactive

-- ask Hi, sorry to bother you, what did the test record for CN1CCCC1=O ?
-- reply inactive

* * *

# Test: APR_HepG2_CellCycleArrest_24hr: Apredica 24-hour HepG2 Assay for Cell Cycle Arrest (AID 2282905);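 further: cell cycle arrest scored as ratio of 2N to 4N nuclear DNA content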
# Condition details: imaging, actives raise or lower the signal
The source made the active and inactive calls. How the source made its calls: active means hit-call score of the fitted dose curve at least 0.9, where 1 is the maximum; inactive means score below 0.9.
Outcomes you can answer with include only these: active, inactive

Worked examples, 5 compounds total:
-- ask Hi, sorry to bother you, what did the test record for Clc1cc(Cl)c(Cl)cc1Cl ?
-- reply inactive

-- ask Hi, sorry to bother you, what did the test record for COc1ccc(S(=O)(=O)N2C(=O)[C@@](c3ccccc3OC)(N3C[C@H](O)C[C@H]3C(=O)N(C)C)c3cc(Cl)ccc32)c(OC)c1 ?
-- reply active

-- ask Hi, sorry to bother you, what did the test record for OC[C@@H](O)[C@@H](O)[C@H](O)[C@H](O)CO ?
-- reply inactive

-- ask Hi, sorry to bother you, what did the test record for COc1cc(S(=O)(=O)O)c(C)cc1N=Nc1c(O)ccc2cc(S(=O)(=O)O)ccc12 ?
-- reply inactive

-- ask Hi, sorry to bother you, what did the test record for CCCCCCC(=O)OCC ?
-- reply inactive

Next compound, please.
-- ask Hi, sorry to bother you, what did the test record for Nc1ccccc1N ?
-- reply active
